ASSAYED SYSTEM: HLA-A*02:01 (Homo sapiens, UniProt P04439, D140Y/D185E/D98H/E176V/E277Q/G131W/G231S/I119V/I121R/I166T/I218V/L300P/L318F/N151K/N90K/P208A/P217A/Q86G/Q94H/R138H/R169H/T345S)
ASSAY REMARKS: MHC binding assay: UV-ligand exchange with beta2m ELISA (peptide exchange yield)
MEASUREMENT SETUP: binding to HLA-A*02:01
RECORDED ENDPOINT: Peptide exchange (MHC class I binding score, peptide exchange yield)

// solved cases for Peptide exchange (MHC class I binding score, peptide exchange yield) follow
SUBSTANCE: 342 (HIYDKVMTV; listed as Homo sapiens) [compound 342]
VALUE OBSERVED: “+++” (≥50 = +++)
--
SUBSTANCE: 128 (YLFDDPLSAV; listed as Homo sapiens) [compound 128]
VALUE OBSERVED: “++” (≥20% = ++)
--
SUBSTANCE: 10 (FLATFPLAAV; listed as Homo sapiens) [compound 10]
VALUE OBSERVED: “++++” (≥75% = ++++)
--
SUBSTANCE: 356 (KLLGKLPEL; listed as Homo sapiens) [compound 356]
VALUE OBSERVED: “+++” (≥50 = +++)

q: Name the recorded Peptide exchange (MHC class I binding score, peptide exchange yield) for 578 (FLDPGGPMMKL; listed as Homo sapiens) [compound 578] .
a: “+++” (≥50 = +++)

q: Name the recorded Peptide exchange (MHC class I binding score, peptide exchange yield) for 475 (LLLNEEALAQI; listed as Homo sapiens) [compound 475] .
a: “+++” (≥50 = +++)

q: Name the recorded Peptide exchange (MHC class I binding score, peptide exchange yield) for 208 (KISPVTFSV; listed as Homo sapiens) [compound 208] .
a: “+++” (≥50 = +++)

q: Name the recorded Peptide exchange (MHC class I binding score, peptide exchange yield) for 199 (ALQDVPLSSV; listed as Homo sapiens) [compound 199] .
a: “+++” (≥50 = +++)

q: Name the recorded Peptide exchange (MHC class I binding score, peptide exchange yield) for 62 (VLLDVSAGQLLM; listed as Homo sapiens) [compound 62] .
a: “++++” (≥75% = ++++)

----------
ASSAYED SYSTEM: HLA-A*02:01 (Homo sapiens, UniProt P04439, D140Y/D185E/D98H/E176V/E277Q/G131W/G231S/I119V/I121R/I166T/I218V/L300P/L318F/N151K/N90K/P208A/P217A/Q86G/Q94H/R138H/R169H/T345S)
ASSAY REMARKS: MHC binding assay: UV-ligand exchange with beta2m ELISA (peptide exchange yield)
MEASUREMENT SETUP: binding to HLA-A*02:01
Source text: Candidate peptides for T cell based therapies according to the present invention were further tested for their MHC binding capacity (affinity). The individual peptide-MHC complexes were produced by UV-ligand exchange, where a UV-sensitive peptide is cleaved upon UV-irradiation, and exchanged with the peptide of interest as analyzed. Only peptide candidates that can effectively bind and stabilize the peptide-receptive MHC molecules prevent dissociation of the MHC complexes. […]
RECORDED ENDPOINT: Peptide exchange (MHC class I binding score, peptide exchange yield)

// solved cases for Peptide exchange (MHC class I binding score, peptide exchange yield) follow
SUBSTANCE: 437 (SMAPGLVIQAV; listed as Homo sapiens) [compound 437]
VALUE OBSERVED: “+++” (≥50 = +++)

SUBSTANCE: 44 (ILDPISSGFLL; listed as Homo sapiens) [compound 44]
VALUE OBSERVED: “++” (≥20% = ++)

SUBSTANCE: 316 (ILLERLWYV; listed as Homo sapiens) [compound 316]
VALUE OBSERVED: “+++” (≥50 = +++)

SUBSTANCE: 388 (SLTIDGIRYV; listed as Homo sapiens) [compound 388]
VALUE OBSERVED: “+++” (≥50 = +++)

SUBSTANCE: 219 (KLSDIGITV; listed as Homo sapiens) [compound 219]
VALUE OBSERVED: “+++” (≥50 = +++)

q: Name the recorded Peptide exchange (MHC class I binding score, peptide exchange yield) for 129 (GLLDGGVDILL; listed as Homo sapiens) [compound 129] .
a: “+++” (≥50 = +++)
